Assay target: T1, HER2 on the surface of HER2+ cancer cells (BT474, SKOV-3) (human, UniProt P04626 23-1255)
T1 construct: whole, on cells; also called human epidermal growth factor receptor 2
Test details: flow cytometry on BT-474 cells (HER2+), 100 nM binding sites
Measured property: Mean (MFI)

>>> measured("F4 anti-HER2 VHH (VHH) VHH: QVQLQESGGGLVQAGGSLKLSCAASGRTLSAYVVGWFRQAPGKERESVAAIGWSSRSPYYPDSVKGRFTISEDNTKNTVYLQMNSLKPDDTAVYYCAADSYPRRWDRESDFGSWGQGTQVTVSS")
99500
>>> measured("E5 anti-HER2 VHH (VHH, also called E5 clone) VHH: QVQLQESGGGLVQAGGSLRLDCAASGRTLSSYVVGWFRQAPGKEREVVAAIGWSRTSTFYTDSVKGRFTISRDNTENTVYLQMNSLKPGDTAVYYCAADSSPRRWDRESDFGSWGQGTQVTVSS")
102000
>>> measured("A1 anti-HER2 VHH (VHH, Llama VHH expressed in WK6 E. coli with C-terminal c-myc and His tags; also called A1 clone) VHH: QVQLQESGGGLVQPGGSLRLSCAASGHTLSTYVVAWFRQAPGKERESVAAIGWSSRSPYYPDSVKGRFTISEDNTKNTVYLQMNSLKPDDTAVYYCAADSYPRRWDRESDFGSWGQGTQVTVSS")
97000
>>> measured("F2 anti-HER2 VHH (VHH) VHH: QVQLQESGGGLVQAGGSLKLSCAASGRTLSAYVVGWFRQAPGRERESVAAIGWSTHSVYYADSVKGRFTISRDNTENTVYLQMNSLKPDDTAVYYCAADSSPRRWDRESDFGSWGQGTQVTVSS")
99500

Reference for the values: patent US20250340649A1
